Numbers sourced from patent US20240391948A1.

# Tested on: J774A.1 (Mouse BALB/c monocyte macrophage cell line) cells
# test.protocol: LPS-induced TNF-α secretion inhibition in J774A.1 cells
# Assay type: cell-based
# stated.conditions: J774.A1, 1 μM compound, graded compared to taurodeoxycholic acid (positive control), read-out: TNF-α production inhibition grade
inhibition at 1 µM values, listed per item

Below: 4 molecules and their reported inhibition at 1 µM.
C[C@H](CCC(=O)N1CC[C@@H](S(=O)(=O)O)C1)[C@H]1CC[C@H]2[C@@H]3CC[C@@H]4C[C@H](O)CC[C@]4(C)[C@H]3CC[C@]12C    < 20%
C[C@H](CCC(=O)N[C@@H](C)CS(=O)(=O)O)[C@H]1CC[C@H]2[C@@H]3CC[C@@H]4CC(=O)CC[C@]4(C)[C@H]3CC[C@]12C    < 20%
C[C@H](CCC(=O)N1CC[C@@H](S(=O)(=O)O)C1)[C@H]1CC[C@H]2[C@@H]3[C@H](O)C[C@@H]4C[C@H](O)CC[C@]4(C)[C@H]3C[C@H](O)[C@]12C    < 20%
C[C@H](CCC(=O)N(CCS(=O)(=O)O)Cc1ccccc1)[C@H]1CC[C@H]2[C@@H]3CC[C@@H]4C[C@H](O)CC[C@]4(C)[C@H]3CC[C@]12C    20 to 50%

--- query ---
// query Jot down inhibition at 1 µM (J774A.1 (Mouse BALB/c monocyte macrophage cell line) cells) of C[C@H](CCC(=O)N(CCS(=O)(=O)O)C1CCCCC1)[C@H]1CC[C@H]2[C@@H]3CC[C@@H]4C[C@H](O)CC[C@]4(C)[C@H]3C[C@H](O)[C@]12C .
// result 20 to 50%
